tested on: food-source rabbit eyes (cornea); conditions: 100 µL, 1 minute exposure, tear solution wash, 24 hours organ culture
compounds and their reported Direct (depth of injury, stromal)

{"COMPOUND": "CC(C)CCCCCOC(=O)CS [iso-Octylthioglycolate]", "READOUT_UNITS": "%", "Direct (depth of injury, stromal)": 0.0}
{"COMPOUND": "OCCCCC(O)CO (stereo not drawn) [1,2,6-Hexanetriol]", "READOUT_UNITS": "%", "Direct (depth of injury, stromal)": 0.0}
{"COMPOUND": "O=C(Cl)c1c(Cl)cccc1Cl [2,6-Dichlorobenzoyl chloride]", "READOUT_UNITS": "%", "Direct (depth of injury, stromal)": 0.0}
{"COMPOUND": "CC(C)=O [Acetone]", "READOUT_UNITS": "%", "Direct (depth of injury, stromal)": 0.0}
{"COMPOUND": "CCCCCC(C)=O [Methyl amyl ketone]", "READOUT_UNITS": "%", "Direct (depth of injury, stromal)": 6.0}
{"COMPOUND": "Cc1ccccc1 [Toluene]", "READOUT_UNITS": "%", "Direct (depth of injury, stromal)": 50.1}
